Target Of Assay: Thromboxane A2 receptor (Homo sapiens) (UniProt P21731)
Test Description: Ratio of IC50 for thromboxane A2 receptor isoform alpha to IC50 for thromboxane A2 receptor isoform beta
Type: functional
Property: Ratio IC50
Form field (numeric): enter value without unit.

{"columns": ["Record Smiles", "Result Number"],
 "data": [
  ["CCCCCNC(=O)NS(=O)(=O)c1cc([N+](=O)[O-])ccc1Oc1ccccc1Cl", 7.9],
  ["CCOc1ccc(Oc2ccc([N+](=O)[O-])cc2S(=O)(=O)NC(=O)NC(C)(C)C)cc1", 17.5],
  ["CCCCNC(=O)NS(=O)(=O)c1cc([N+](=O)[O-])ccc1Oc1ccccc1C", 16.1],
  ["COc1cccc(Oc2ccc([N+](=O)[O-])cc2S(=O)(=O)NC(=O)NC(C)(C)C)c1", 19.9],
  ["CCCOc1ccc(Oc2ccc([N+](=O)[O-])cc2S(=O)(=O)NC(=O)NC(C)(C)C)cc1", 12.3]
]}

Returns the measured Ratio IC50 for the input molecule. Input: CCCCCNC(=O)NS(=O)(=O)c1cc([N+](=O)[O-])ccc1Oc1ccc(I)cc1 7.2

Ok, now CCCCCNC(=O)NS(=O)(=O)c1cc([N+](=O)[O-])ccc1Oc1ccc(OCC)cc1 18.1

Moving on to Cc1ccccc1Oc1ccc([N+](=O)[O-])cc1S(=O)(=O)NC(=O)NC(C)C 17.5

# iterate: CC(C)(C)NC(=O)NS(=O)(=O)c1cc([N+](=O)[O-])ccc1Oc1ccc(Cl)cc1 7.6

###

Target Of Assay: Thromboxane A2 receptor (Homo sapiens) (UniProt P21731)
Sequence (whole entry): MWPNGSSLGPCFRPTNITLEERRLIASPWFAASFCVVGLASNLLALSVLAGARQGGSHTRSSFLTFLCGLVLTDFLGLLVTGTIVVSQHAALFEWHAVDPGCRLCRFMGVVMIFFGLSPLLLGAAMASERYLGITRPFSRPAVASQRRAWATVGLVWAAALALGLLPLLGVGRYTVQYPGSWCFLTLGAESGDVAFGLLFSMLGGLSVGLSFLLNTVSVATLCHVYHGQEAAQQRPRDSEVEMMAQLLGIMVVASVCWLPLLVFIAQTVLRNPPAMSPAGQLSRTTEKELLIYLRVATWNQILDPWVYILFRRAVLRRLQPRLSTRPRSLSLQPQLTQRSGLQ
Test Description: Ratio of IC50 for thromboxane A2 receptor isoform alpha to IC50 for thromboxane A2 receptor isoform beta
Assay type: functional
Kindly apply the following: TRUE if Ratio IC50 is less than 10, FALSE in every other case.

Solved entries (count: 4):
{"columns": ["Record Smiles", "Qualitative Label"],
 "data": [
  ["CC(C)(C)NC(=O)NS(=O)(=O)c1cc([N+](=O)[O-])ccc1Oc1cccc(I)c1", "TRUE"],
  ["CCCCNC(=O)NS(=O)(=O)c1cc([N+](=O)[O-])ccc1Oc1cccc(C)c1", "FALSE"],
  ["CCCCCNC(=O)NS(=O)(=O)c1cc([N+](=O)[O-])ccc1Oc1ccccc1C", "TRUE"],
  ["CC(C)(C)NC(=O)NS(=O)(=O)c1cc([N+](=O)[O-])ccc1Oc1ccc(I)cc1", "TRUE"]
]}

Check if Ratio IC50 falls below 10 for CCCCCNC(=O)NS(=O)(=O)c1cc([N+](=O)[O-])ccc1Oc1ccc(Br)cc1 . TRUE

# iterate: CCCCCNC(=O)NS(=O)(=O)c1cc([N+](=O)[O-])ccc1Oc1cccc(C)c1 FALSE

How about Cc1ccc(Nc2ccc([N+](=O)[O-])cc2S(=O)(=O)NC(=O)NC(C)(C)C)cc1 ? TRUE

Now the same for Cc1cccc(Oc2ccc([N+](=O)[O-])cc2S(=O)(=O)NC(=O)NC(C)C)c1 FALSE

###

Target Of Assay: Thromboxane A2 receptor (Homo sapiens)
Sequence (P21731 whole entry): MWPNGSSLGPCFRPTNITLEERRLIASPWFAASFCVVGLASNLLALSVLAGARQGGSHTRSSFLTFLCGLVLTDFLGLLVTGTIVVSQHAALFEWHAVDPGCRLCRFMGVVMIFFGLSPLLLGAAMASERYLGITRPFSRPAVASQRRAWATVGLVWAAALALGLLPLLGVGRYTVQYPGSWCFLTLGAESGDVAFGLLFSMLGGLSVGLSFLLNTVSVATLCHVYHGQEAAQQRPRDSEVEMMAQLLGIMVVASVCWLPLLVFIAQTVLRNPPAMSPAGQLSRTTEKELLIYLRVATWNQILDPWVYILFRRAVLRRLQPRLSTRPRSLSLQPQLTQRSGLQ
Test Description: Antagonist activity at human thromboxane A2 receptor isoform beta expressed in HEK293 cells assessed as inhibition of U46619-induced calcium mobilization
Format: functional, cell-based
Measured pIC50 of individual entries
pIC50 is a log-scale quantity: -log10 of the concentration expressed in molar.

Completed entries (count: 5):
{"columns": ["Record Smiles", "pIC50"],
 "data": [
  ["CC(C)(C)NC(=O)NS(=O)(=O)c1cc([N+](=O)[O-])ccc1Oc1ccc(I)cc1", 6.40],
  ["CC(C)(C)NC(=O)NS(=O)(=O)c1cc([N+](=O)[O-])ccc1Oc1ccc(Cl)cc1", 6.40],
  ["COc1cc(C)ccc1Oc1ccc([N+](=O)[O-])cc1S(=O)(=O)NC(=O)NC(C)(C)C", 7.28],
  ["CCOc1ccc(Oc2ccc([N+](=O)[O-])cc2S(=O)(=O)NC(=O)NC(C)(C)C)cc1", 5.96],
  ["COc1cccc(Oc2ccc([N+](=O)[O-])cc2S(=O)(=O)NC(=O)NC(C)(C)C)c1", 7.00]
]}

Which pIC50 value is on record for CC(C)(C)NC(=O)NS(=O)(=O)c1cc([N+](=O)[O-])ccc1Oc1cccc(Br)c1 ? 7.23

Cc1cccc(Oc2ccc([N+](=O)[O-])cc2S(=O)(=O)NC(=O)NC(C)(C)C)c1 ? 7.77

###

Target Of Assay: Thromboxane A2 receptor (Homo sapiens)
Test Description: Antagonist activity at human thromboxane A2 receptor isoform alpha expressed in HEK293 cells assessed as inhibition of U46619-induced calcium mobilization
Format: functional, cell-based
IC50 by entry:
Return type: number; implicit unit nM.

Worked examples follow.
{"columns": ["Record Smiles", "IC50 [nM]"],
 "data": [
  ["COc1cc(C)ccc1Oc1ccc([N+](=O)[O-])cc1S(=O)(=O)NC(=O)NC(C)(C)C", 528],
  ["CCCCCNC(=O)NS(=O)(=O)c1cc([N+](=O)[O-])ccc1Oc1cccc(C)c1", 2530],
  ["CC(C)(C)NC(=O)NS(=O)(=O)c1cc([N+](=O)[O-])ccc1Oc1ccc(I)cc1", 2150],
  ["Cc1cccc(Oc2ccc([N+](=O)[O-])cc2S(=O)(=O)NC(=O)NC(C)C)c1", 2640]
]}

Can you look up the measured IC50 of CC(C)(C)NC(=O)NS(=O)(=O)c1cc([N+](=O)[O-])ccc1Oc1cccc(Br)c1 for me? 683

Request: CC(C)(C)NC(=O)NS(=O)(=O)c1cc([N+](=O)[O-])ccc1Oc1ccccc1Br 2580

Moving on to CCCCCNC(=O)NS(=O)(=O)c1cc([N+](=O)[O-])ccc1Oc1ccc(OC)cc1 2670

Likewise for CC(C)(C)NC(=O)NS(=O)(=O)c1cc([N+](=O)[O-])ccc1Oc1ccc(Br)cc1 ? 1660

Now consider CCCCCNC(=O)NS(=O)(=O)c1cc([N+](=O)[O-])ccc1Oc1ccc(Cl)cc1 . 871

Also CCCCCNC(=O)NS(=O)(=O)c1cc([N+](=O)[O-])ccc1Oc1ccc(I)cc1 ? 2190

Queued: CCCCCNC(=O)NS(=O)(=O)c1cc([N+](=O)[O-])ccc1Oc1ccc(OCC)cc1 13600

###

Consider the following compounds and their measured IC50 readings.
Target Of Assay: Thromboxane A2 receptor (Homo sapiens, UniProt P21731)
Sequence (P21731 whole entry): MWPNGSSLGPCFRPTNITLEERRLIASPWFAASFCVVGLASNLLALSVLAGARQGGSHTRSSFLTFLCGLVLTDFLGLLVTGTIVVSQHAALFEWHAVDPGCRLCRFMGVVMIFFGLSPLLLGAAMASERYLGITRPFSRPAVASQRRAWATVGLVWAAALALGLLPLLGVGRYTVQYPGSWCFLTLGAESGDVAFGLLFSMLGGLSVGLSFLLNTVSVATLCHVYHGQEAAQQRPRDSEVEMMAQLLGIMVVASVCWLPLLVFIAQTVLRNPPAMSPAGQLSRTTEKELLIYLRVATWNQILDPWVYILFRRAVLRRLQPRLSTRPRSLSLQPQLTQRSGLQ
Test Description: Antagonist activity at human thromboxane A2 receptor isoform beta expressed in HEK293 cells assessed as inhibition of U46619-induced calcium mobilization
Format: functional, cell-based
Dear colleague, please return just the value in nM, with no unit written.

The examples below pair each entry with its known result.
{"columns": ["Record Smiles", "IC50 (nM)"],
 "data": [
  ["CCCCCNC(=O)NS(=O)(=O)c1cc([N+](=O)[O-])ccc1Oc1ccc(Cl)cc1", 98],
  ["CCCCNC(=O)NS(=O)(=O)c1cc([N+](=O)[O-])ccc1Oc1ccccc1C", 42],
  ["CCCCCNC(=O)NS(=O)(=O)c1cc([N+](=O)[O-])ccc1Oc1ccc(OCC)cc1", 749],
  ["CCCCCNC(=O)NS(=O)(=O)c1cc([N+](=O)[O-])ccc1Oc1ccc(OCCC)cc1", 4840],
  ["CC(C)(C)NC(=O)NS(=O)(=O)c1cc([N+](=O)[O-])ccc1Oc1cccc(Cl)c1", 73],
  ["CCCCCNC(=O)NS(=O)(=O)c1cc([N+](=O)[O-])ccc1Oc1cccc(Br)c1", 413],
  ["Cc1cc(Oc2ccc([N+](=O)[O-])cc2S(=O)(=O)NC(=O)NC(C)(C)C)ccc1Cl", 111],
  ["CC(C)(C)NC(=O)NS(=O)(=O)c1cc([N+](=O)[O-])ccc1Oc1cccc(I)c1", 95]
]}

// returns reported IC50 for input CCCCCNC(=O)NS(=O)(=O)c1cc([N+](=O)[O-])ccc1Oc1cccc(I)c1 885

Another: CCCCCNC(=O)NS(=O)(=O)c1cc([N+](=O)[O-])ccc1Oc1ccc(I)cc1 302

Cool, now Cc1cccc(Oc2ccc([N+](=O)[O-])cc2S(=O)(=O)NC(=O)NC(C)C)c1 205

Same thing, different compound: CCCCCNC(=O)NS(=O)(=O)c1cc([N+](=O)[O-])ccc1Oc1ccccc1C 181

Next compound up: CCCCCNC(=O)NS(=O)(=O)c1cc([N+](=O)[O-])ccc1Oc1ccccc1Br 423

# repeat for CCCCCNC(=O)NS(=O)(=O)c1cc([N+](=O)[O-])ccc1Oc1cccc(Cl)c1 201

Now the same for Cc1ccc(Oc2ccc([N+](=O)[O-])cc2S(=O)(=O)NC(=O)NC(C)C)cc1 843

Note, next up: CC(C)(C)NC(=O)NS(=O)(=O)c1cc([N+](=O)[O-])ccc1Oc1ccccc1Cl 205
